// reported INS1e assay EC50 (cAMP) Mean for each item listed
# measured target: T1, GLP-1R in the INS1e assay (UniProt P32301 22-463, limits assumed)
# T1 sequence (looked up): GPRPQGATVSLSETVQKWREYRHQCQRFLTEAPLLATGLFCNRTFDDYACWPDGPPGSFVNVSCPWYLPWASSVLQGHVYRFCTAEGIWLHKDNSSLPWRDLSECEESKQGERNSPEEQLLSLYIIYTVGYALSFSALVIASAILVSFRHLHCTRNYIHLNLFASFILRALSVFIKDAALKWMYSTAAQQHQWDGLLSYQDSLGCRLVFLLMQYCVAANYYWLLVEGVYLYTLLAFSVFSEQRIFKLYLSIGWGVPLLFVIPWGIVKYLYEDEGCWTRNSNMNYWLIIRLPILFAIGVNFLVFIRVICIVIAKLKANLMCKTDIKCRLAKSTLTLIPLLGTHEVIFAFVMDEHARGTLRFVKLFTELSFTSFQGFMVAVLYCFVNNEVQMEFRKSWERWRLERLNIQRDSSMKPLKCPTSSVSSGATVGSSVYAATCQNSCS
# assay notes: cell-based or functional assay
Starred links: 1 amine or outer side, 2 acyl side, 3 side chain; linkers in the order of their positions; H or OH if unused. Non-standard residues stand in square brackets, D forms with d. Groups on a side chain read outwards from the residue. Primed or numbered codes have the meaning given here. No end group written: not given here. *: point of attachment. γGlu = O=C(O)[C@H](CCC(=O)[*:2])N[*:1]; Palmitoyl = CCCCCCCCCCCCCCCC(=O)*; αMeF = C[C@](N)(Cc1ccccc1)C(=O)O; αMeK = C[C@](N)(CCCCN)C(=O)O; Lauroyl = CCCCCCCCCCCC(=O)*; αMeS = C[C@](N)(CO)C(=O)O; PEG2′ = not defined here; Aib = CC(C)(N)C(=O)O
endpoint label: INS1e assay EC50 (cAMP) Mean (nM)

| binder | endpoint label | measured value |
| --- | --- | --- |
| H[Aib]EGS[αMeF]TSDV[αMeS]SK([PEG2′-PEG2′-γGlu-Lauroyl])LEGEAA[αMeK]EFIAK([PEG2′-PEG2′-γGlu-Lauroyl])VVEGG-NH2 [SEQ ID NO: 263] | INS1e assay EC50 (cAMP) Mean | 0.132 |
| H[Aib]EGS[αMeF]TSDV[αMeS]SYK([PEG2′-PEG2′-γGlu-Lauroyl])EGEAA[αMeK]EFIAWK([PEG2′-PEG2′-γGlu-Lauroyl])VEGG-NH2 [SEQ ID NO: 270] | INS1e assay EC50 (cAMP) Mean | 1.72 |
| H[Aib]EGS[αMeF]TSDV[αMeS]SK([PEG2′-PEG2′-γGlu-Palmitoyl])LEGEAA[αMeK]E[αMeF]IAK([PEG2′-PEG2′-γGlu-Palmitoyl])VVEGG-NH2 [SEQ ID NO: 409] | INS1e assay EC50 (cAMP) Mean | 0.216 |
| H[Aib]EGS[αMeF]TSDVSK([PEG2′-PEG2′-γGlu-Palmitoyl])FLEGEAAEEFIK([PEG2′-PEG2′-γGlu-Palmitoyl])FVVEGG-NH2 [SEQ ID NO: 247] | INS1e assay EC50 (cAMP) Mean | 72.1 |
